# Target Or System: Gal(a1-4)Gal(b1-4)Glc
# Experimental Protocol: glycan array binding signal (z-score within array); higher = stronger binding
# Measurement Parameters: glycan notation: IUPAC condensed, linker removed
About 410 targets per protein were measured; listed, in parts, are those with the strongest signals and a random draw of the rest.
Assay Endpoint: glycan array binding signal (z-score)
The answer should be written as a number, with no unit following it.

Q. Query (binder): 3FTT (Staphylococcus aureus), Q5HCZ5 (protein) MTEKEKMLAEKWYDANFDQYLINERARAKDICFELNHTRPSATNKRKELIDQLFQTTTDNVSISIPFDTDYGWNVKLGKNVYVNTNCYFMDGGQITIGDNVFIGPNCGFYTATHPLNFHHRNEGFEKAGPIHIGSNTWFGGHVAVLPGVTIGEGSVIGAGSVVTKDIPPHSLAVGNPCKVVRKIDNDLPSETLNDETIK ; field requested: glycan array binding signal (z-score)
A. -0.171

Q. Ok, now SJCP3842 (Schistosoma japonicum) (protein) MFKMRIINLVNISTVLLLINLLQTKSRLVGKENGFMLTVSIYGAQLSDKMTSVPVSWTIDYEDPEKSAFKKLVTDSCDTFSEYVKSQIPKGSVDGQCTSHIFQRPGSGSGVSISLTLSFIYVDVTQPDTVALKTELEKHFANFVTIHSHKITQAQFRINQKAIVIPTGDKDAIDGSKWKIIAIIALVALAIVVIGGFIYICVK
A. -1.04

Q. CFEM-CGl (Candida glabrata), Q6FRS0 (protein) VLATPPACLLACVAQVSKQSSQCHTLNQVGCFCENENTAIKNCLDSICPNGNSDAAYTAFKNSCGDVGKAVASV ?
A. -0.153
